Data credit: PubChem BioAssay (NCI)

Tested on: MDA-MB-231 breast
Experiment Description: NCI-60 one-dose screen, 48 h
Experimental Conditions: 10 µM
About 83,000 compounds went through this panel and 20% of them were active in at least one assay; those are over-represented in the sample as a whole. Active and inactive are the calls of the source. How the source made its calls: active means growth percent below 10; inactive means the rest.
Respond with a class label; see active, inactive

Tell me the assay call for "CC[C@]12C=CCN3CC[C@@]4(c5ccc(OC)cc5N(C)[C@H]4[C@@](O)(C(=O)OC)[C@@H]1OC(=O)CCCC[P+](C1CCCCC1)(C1CCCCC1)C1CCCCC1)[C@@H]32" please.
active

Likewise for "CC(C)N=C([Se])NC(=O)c1ccccc1" ?
active

Cool, now "C[C@H]1[C@H](OC(=O)CCC(=O)N(CCCc2cn(-c3ccc(C#N)cc3)nn2)CCNc2ccnc3cc(Cl)ccc23)O[C@@H]2OC3(C)CC[C@H]4[C@H](C)CC[C@@H]1[C@@]24OO3"
inactive

Also "COc1cc2cc(C(=O)N3C[C@@H](CCl)c4c3cc(OC(=O)N3CCN(C)[C@@H]5CSSC[C@H]53)c3ccccc43)[nH]c2c(OC)c1OC" , if possible.
active

Likewise for "COc1cc(OC)c(S(=O)(=O)N(CCCl)CCCl)cc1C(=O)/C=C/c1ccc(C)cc1" ?
inactive

Next compound: "CC12CCC3(CCC(=O)NCCCNc4ccnc5cc(Cl)ccc45)[C@@](C)(OO[C@]3(C)O1)O2"
active

Now give it for "COC(=O)CCn1c(-c2ccc(-n3cc(-c4ccc(O[C@H]5O[C@@H]6OC7(C)CC[C@H]8[C@H](C)CC[C@@H]([C@H]5C)[C@@]68OO7)cc4)nn3)cc2)nc2ccccc21" too.
inactive

Moving on to "CN(C)CCc1cn(C2CCC2)c2cccc(O)c12"
inactive

Do the same for "CC1=C(CCC=NNC(N)=O)C2=C(C)C3(CC3)[C@@](C)(O)C(=O)C2=C1" please
active

Let us now turn to "C[C@H]1[C@@H](Oc2ccc(-c3cn(-c4ccnc5cc(Cl)ccc45)nn3)cc2)O[C@@H]2OC3(C)CC[C@H]4[C@H](C)CC[C@@H]1[C@@]24OO3"
inactive

Same question, CC12OOC(C)(OO1)C2CCC(=O)NCCCNc1ccnc2cc(Cl)ccc12 (centres undefined) this time
inactive

Repeat for the following compound: "C[C@H]1[C@H](OC(=O)CCC(=O)Nc2cnccn2)O[C@@H]2OC3(C)CC[C@H]4[C@H](C)CC[C@@H]1[C@@]24OO3"
inactive

Next up: "CC[C@]12C=CCN3CC[C@@]4(c5ccc(OC)cc5N(C)[C@H]4[C@@](O)(C(=O)OC)[C@@H]1OC(=O)CCCC[P+](c1ccc(C)cc1)(c1ccc(C)cc1)c1ccc(C)cc1)[C@@H]32"
active

Another compound: "COCCOCCOCCOc1ccc(-n2cc(-c3ccc(O[C@H]4O[C@@H]5OC6(C)CC[C@H]7[C@H](C)CC[C@@H]([C@H]4C)[C@@]57OO6)cc3)nn2)cc1"
inactive

###

Test system: SN12C renal
Experiment Description: NCI-60 one-dose screen, 48 h
Experimental Conditions: 10 µM
This is part of a sample that, as a whole, favours compounds with a hit. Of some 83,000 tested, about 20% had one in any assay. Activity calls are given as the source filed them. Rule for the calls: active = growth percent below 10; inactive = the rest.
Please answer using one outcome listed in label 1 = active, label 0 = inactive

Which outcome did this test record for the molecule "CC1=C(C=O)C2=C(C)C3(CC3)[C@@](C)(O)C(=O)C2=C1" ?
label 0

Please answer likewise for "COc1ccc2cc([C@H](C)C(=O)[Se]CCC#N)ccc2c1"
label 1

And what about the molecule CCOP(=O)(OCC)C(NC(C)=O)C(=O)SCCN (configuration not stated) ?
label 0

How about "CC[C@]12C=CCN3CC[C@@]4(c5ccc(OC)cc5N(C)[C@H]4[C@@](O)(C(=O)OC)[C@@H]1OC(=O)CCCC[P+](c1ccc(OC)cc1)(c1ccc(OC)cc1)c1ccc(OC)cc1)[C@@H]32" ?
label 1

Similarly, "CC1=C(COCCOC(=O)c2ccc(S(=O)(=O)F)cc2)C2=C(C)C3(CC3)[C@@](C)(O)C(=O)C2=C1" ?
label 1

Then this molecule: "CC[C@]12C=CCN3CC[C@@]4(c5ccc(OC)cc5N(C)[C@H]4[C@@](O)(C(=O)OC)[C@@H]1OC(=O)CCC[P+](C1CCCCC1)(C1CCCCC1)C1CCCCC1)[C@@H]32"
label 1

What about "COc1cc(OC)c(/C=C/C(=O)c2nc3ccccc3n2Cc2ccc(F)cc2)c(OC)c1" ?
label 0

Next entry: "O=C(/C=C/c1ccc(Cl)cc1Cl)c1nc2ccccc2n1Cc1ccc(F)cc1"
label 0

Ok, now CC12OOC(C)(OO1)C2CCC(=O)NCCNc1ccnc2cc(Cl)ccc12 (configuration not stated)
label 0

Could you do the same for "C#CC[Se]C(=O)c1ccc(C(=O)[Se]CC#C)s1" , please?
label 0

Field entry: "C[C@H]1[C@H](OC(=O)CCC(=O)N(CCCc2cn(-c3ccc([N+](=O)[O-])cc3)nn2)CCNc2ccnc3cc(Cl)ccc23)O[C@@H]2OC3(C)CC[C@H]4[C@H](C)CC[C@@H]1[C@@]24OO3"
label 0

Also, "CC1=C(CCC=NNC(N)=O)C2=C(C)C3(CC3)[C@@](C)(O)C(=O)C2=C1" please.
label 1

Also check "O=C(/C=C/c1ccc(Cl)cc1)c1nc2ccccc2n1Cc1ccc(Br)cc1"
label 0

Param item: "CN(C)CCc1cn(C2CCC2)c2cccc(O)c12"
label 0

Now give it for "C[C@H]1[C@H](OC(=O)CCC(=O)N(CCCc2cn(-c3ccc(CN4CCOCC4)cc3)nn2)CCNc2ccnc3cc(Cl)ccc23)O[C@@H]2OC3(C)CC[C@H]4[C@H](C)CC[C@@H]1[C@@]24OO3" too.
label 0

Continue with "O=C(/C=C/c1ccc(Cl)cc1Cl)c1nc2ccccc2n1Cc1ccc(Br)cc1"
label 0

Record: "C[C@H]1[C@H](OC(=O)CCC(=O)N(CCCc2cn(-c3ccc(C#N)cc3)nn2)CCNc2ccnc3cc(Cl)ccc23)O[C@@H]2OC3(C)CC[C@H]4[C@H](C)CC[C@@H]1[C@@]24OO3"
label 0
